Consider the following compounds; for each one, report its Ki.
target-or-test-system: human D2long (Homo sapiens)
Sequence (P14416 whole entry): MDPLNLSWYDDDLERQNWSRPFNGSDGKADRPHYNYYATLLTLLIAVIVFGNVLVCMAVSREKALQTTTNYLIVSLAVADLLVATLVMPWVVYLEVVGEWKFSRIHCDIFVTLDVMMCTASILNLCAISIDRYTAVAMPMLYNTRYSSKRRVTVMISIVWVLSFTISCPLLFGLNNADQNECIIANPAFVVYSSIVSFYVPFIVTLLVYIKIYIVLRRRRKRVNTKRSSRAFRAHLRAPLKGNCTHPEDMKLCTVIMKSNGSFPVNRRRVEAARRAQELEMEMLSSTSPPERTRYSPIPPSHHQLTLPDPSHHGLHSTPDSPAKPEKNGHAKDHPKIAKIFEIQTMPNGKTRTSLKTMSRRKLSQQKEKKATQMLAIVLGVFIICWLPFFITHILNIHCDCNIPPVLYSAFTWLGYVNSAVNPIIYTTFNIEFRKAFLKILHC
Numbers only, in nM.

O=C(NCCCCN1CCN(c2cccc(Cl)c2Cl)CC1)c1cc2cccnc2n1S(=O)(=O)c1ccccc1: 68
COc1ccccc1N1CCN(CCCCNC(=O)c2cc3cccnc3n2S(=O)(=O)c2ccccc2)CC1: 180
COc1ccccc1N1CCN(CCCCNC(=O)c2cc3cccnc3[nH]2)CC1: 58

Please look at the following compound next.
Value of Ki reported for the compound "O=C(NCCCCN1CCN(c2cccc(Cl)c2Cl)CC1)c1cc2cccnc2[nH]1" is 19

---

target-or-test-system: 5-HT1A (Sus scrofa)
Sequence (A0A4X1UTF5 1-422): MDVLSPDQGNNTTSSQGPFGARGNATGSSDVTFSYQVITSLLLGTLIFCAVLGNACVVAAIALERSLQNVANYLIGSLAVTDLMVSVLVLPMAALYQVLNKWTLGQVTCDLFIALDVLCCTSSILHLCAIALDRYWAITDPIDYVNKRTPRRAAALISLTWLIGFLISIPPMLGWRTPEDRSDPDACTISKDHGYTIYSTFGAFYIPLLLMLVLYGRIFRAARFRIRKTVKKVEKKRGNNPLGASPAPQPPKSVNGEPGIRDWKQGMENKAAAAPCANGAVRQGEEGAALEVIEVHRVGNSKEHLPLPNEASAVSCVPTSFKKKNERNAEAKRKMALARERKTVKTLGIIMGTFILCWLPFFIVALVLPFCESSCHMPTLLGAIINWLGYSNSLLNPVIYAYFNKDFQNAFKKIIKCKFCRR
quantity-measured: Ki (nM)
Numbers only, in nM.

Before answering, review these 3 worked examples.
O=C(NCCCCN1CCN(c2cccc(Cl)c2Cl)CC1)c1cc2cccnc2n1S(=O)(=O)c1ccccc1 [Example 4]: 16
COc1ccccc1N1CCN(CCCCNC(=O)c2cc3cccnc3[nH]2)CC1 [Example 1]: 23
COc1ccccc1N1CCN(CCCCNC(=O)c2cc3cccnc3n2S(=O)(=O)c2ccccc2)CC1 [Example 2]: 14

Please look at the following compound next.
Form: item O=C(NCCCCN1CCN(c2cccc(Cl)c2Cl)CC1)c1cc2cccnc2[nH]1 [Example 3] ; test system 5-HT1A (Sus scrofa); Ki: 24

---

Below are Ki values measured for 5-HT2 (Sus scrofa, UniProt P50129).
One number for each entry, in nM.

COc1ccccc1N1CCN(CCCCNC(=O)c2cc3cccnc3n2S(=O)(=O)c2ccccc2)CC1: 1100
O=C(NCCCCN1CCN(c2cccc(Cl)c2Cl)CC1)c1cc2cccnc2[nH]1: 63

Hi! Can you tell me Ki for each of these compounds?
1. COc1ccccc1N1CCN(CCCCNC(=O)c2cc3cccnc3[nH]2)CC1
2. O=C(NCCCCN1CCN(c2cccc(Cl)c2Cl)CC1)c1cc2cccnc2n1S(=O)(=O)c1ccccc1

340
200

---

target-or-test-system: dopamine-D3-receptor (Homo sapiens)
Construct: expressed in transfected cells
Sequence (P35462 whole entry): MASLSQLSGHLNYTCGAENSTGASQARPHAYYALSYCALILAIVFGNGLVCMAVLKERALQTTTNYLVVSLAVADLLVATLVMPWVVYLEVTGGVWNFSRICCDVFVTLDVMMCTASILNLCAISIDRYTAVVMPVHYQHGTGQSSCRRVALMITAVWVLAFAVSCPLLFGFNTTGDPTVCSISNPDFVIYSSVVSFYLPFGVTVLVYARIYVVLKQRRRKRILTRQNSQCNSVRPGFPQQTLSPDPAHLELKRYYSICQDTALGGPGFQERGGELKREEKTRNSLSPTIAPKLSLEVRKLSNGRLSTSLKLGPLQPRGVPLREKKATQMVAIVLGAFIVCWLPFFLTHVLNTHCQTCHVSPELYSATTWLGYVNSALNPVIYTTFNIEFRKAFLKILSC
protocol-notes: mitogenesis assay, [3H]thymidine incorporation in D3 receptor-expressing cells
Type: cell-based
experimental-parameters: with reference to the maximum effect of the full agonist Quinpirol
Consider the following molecules; for each one, report its agonistic activity.

Before answering, review these 3 worked examples.
COc1ccccc1N1CCN(CCCCNC(=O)c2cc3cccnc3n2S(=O)(=O)c2ccccc2)CC1 [Example 2]: 12%
O=C(NCCCCN1CCN(c2cccc(Cl)c2Cl)CC1)c1cc2cccnc2[nH]1 [Example 3]: 41%
O=C(NCCCCN1CCN(c2cccc(Cl)c2Cl)CC1)c1cc2cccnc2n1S(=O)(=O)c1ccccc1 [Example 4]: 16%

Please look at the following molecule next.
Form: item COc1ccccc1N1CCN(CCCCNC(=O)c2cc3cccnc3[nH]2)CC1 [Example 1] ; test system dopamine-D3-receptor (Homo sapiens); agonistic activity: 14%
